This collection of values is drawn from patent US11566007B2.

molecular target: KRAS G12S (Homo sapiens (Human), UniProt P01116+P62937, G12S); assay: Ras-Raf (BRAF RBD) disruption / FRET / MOA assay, KRAS G12S; assay type: biochemical; settings: Ras-Raf disruption/FRET/MOA assay; class symbols; read-out: KRAS G12S FRET data IC50
Sequence (P01116-2 other isoform, or with tags, fused parts or gaps G12S): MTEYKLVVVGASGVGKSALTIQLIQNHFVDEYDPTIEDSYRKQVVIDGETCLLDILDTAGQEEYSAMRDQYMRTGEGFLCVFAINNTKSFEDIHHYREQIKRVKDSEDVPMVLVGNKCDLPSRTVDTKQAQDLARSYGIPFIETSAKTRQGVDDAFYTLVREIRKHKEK
Sequence (P62937 whole entry): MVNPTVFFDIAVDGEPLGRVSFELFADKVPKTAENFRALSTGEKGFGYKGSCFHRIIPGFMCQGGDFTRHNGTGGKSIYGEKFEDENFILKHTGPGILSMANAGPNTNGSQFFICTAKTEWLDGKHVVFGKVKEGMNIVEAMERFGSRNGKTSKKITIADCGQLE
Recorded IC50 values for a group of compounds are listed next.

- Compound: "CO[C@@H](C)c1ncccc1-c1c2c3cc(ccc3n1CC(F)(F)F)-c1cccc(c1)C[C@H](NC(=O)[C@H](C(C)C)N(C)C(=O)[C@H]1CCN(C(=O)C#CC(C)(C)N(C)C)C1)C(=O)N1CCC[C@H](N1)C(=O)OCC(C)(C)C2 (atropisomer, axis not shown)"
  Study target: "KRAS G12S (Homo sapiens (Human), UniProt P01116+P62937, G12S)"
  Reported endpoint: "IC50"
  Measured value: "1000 to 10000 nM"

Fill in the blank: the reported IC50 of C=CC(=O)N1CCN(C(=O)N(C)[C@H](C(=O)N[C@H]2Cc3nc(cs3)-c3ccc4c(c3)c(c(-c3cccnc3[C@H](C)OC)n4CC)CC(C)(C)COC(=O)[C@@H]3CCCN(N3)C2=O)C(C)C)CC1 (atropisomer, axis not shown) [Example A493] is ____.
10 to 100 nM
